# System: Plasmodium falciparum
# assay.summary: GSK_TCMDC: Inhibition of Plasmodium falciparum 3D7 in whole red blood cells, using parasite LDH activity as an index of growth. Test compounds present at 2uM
# Type: functional
measured.attribute: Inhibition (%)
One number for each entry, in %.

Illustrative cases are given below, each with its answer.
>>> quantitative_readout("CCCCOc1ccc(N2C(N)=NC(N)=NC2(C)C)cc1.Cl")
97
>>> quantitative_readout("O=C(Nc1nc(-c2cc(F)ccc2F)cs1)c1cncc(Br)c1")
85
>>> quantitative_readout("CCOC(=O)c1ccc(NC(=O)Nc2ccc(Cn3ncc(N4CCCNCC4)c(Cl)c3=O)cc2)cc1.O=C(O)C(F)(F)F")
88

Would you mind giving Inhibition for every molecule in the list below?
1. COc1ccc(-c2cccc(NC(=O)c3cccc(C#N)c3)c2)cc1CN1CCC(O)CC1.O=C(O)C(F)(F)F
2. COc1cc(-c2nc(C(C)(C)CN)[nH]c2-c2ccncc2)ccc1Br.Cl
3. COc1ccc2nccc([C@@H](O)CN3CCC(NCc4nc5c(C#N)cccc5[nH]4)CC3)c2c1.O=C(O)C(=O)O
4. Clc1cc(Cl)c2c(c1)C(NCCCNc1nc3ccccc3[nH]1)CCO2 (centres undefined)
5. O=C(c1ccc(Cl)cc1)N1CCOC(CCN2CCC(c3ccccc3)CC2)(c2ccc(Cl)c(Cl)c2)C1 (centres undefined)
6. Nc1nc(N)c2c(Sc3ccc(F)cc3)cccc2n1

[A]
[97, 97, 96, 100, 98, 88]

----------
What Inhibition was measured for each of the following?
# Tested on: Plasmodium falciparum
# assay.summary: GSK_TCMDC: Inhibition of Plasmodium falciparum 3D7 in whole red blood cells, using parasite LDH activity as an index of growth. Test compounds present at 2uM
# Type: functional
Give bare numbers, in %.

Illustrative cases are given below, each with its answer.
>>> quantitative_readout("Cc1cc(C2CCN(CCCCNC(=O)c3ccc(NC(=O)c4ccc(Cl)cc4)cc3)CC2)c(C)cc1OCc1cccnc1")
100
>>> quantitative_readout("CCNc1cc(C)nc(Nc2ccccc2)n1")
92
>>> quantitative_readout("COc1ccc2nccc([C@@H](O)CN3CCC(NCc4cc5cccc(OC)c5o4)CC3)c2c1.O=C(O)C(=O)O")
99
>>> quantitative_readout("COc1ccc(N2CCc3c(-c4cccc5cnccc45)cc(C)nc32)c(C)c1")
96
>>> quantitative_readout("CC(C)(C)COc1ccc2c(N)n[nH]c2c1.Cl")
90

Need Inhibition for each of these molecules.
1. C=CCOC(=O)N1CCC(CNCc2cccc(-c3ccc(-c4nc5cccc(C)c5[nH]4)s3)c2)C1.O=C(O)C(F)(F)F (configuration not stated)
2. CN1CCC(NCc2cccc(-c3nn(C)c4nc(NC5CCCC5)ncc34)c2)CC1

[A]
1: 100; 2: 98

# return Inhibition for each item in the list
1. CC(C)c1ncc(-c2ccncc2)c(C2CCC(CNC(=O)c3cccnc3)CC2)n1 (configuration not stated)
2. O=C(Nc1cccc(-c2ccc(-c3nc4ccccc4[nH]3)cc2)c1)c1cccnc1
3. COc1ccc(Nc2ncc3c(-c4cccc(NC(=O)c5ccccc5)c4)c[nH]c3n2)cc1OC
4. CN1CCC(N2CCN(Cc3ccc(-c4cccc(-c5nc6ccccc6[nH]5)c4)cc3)CC2)CC1.O=C(O)C(F)(F)F
5. COc1cccc(-c2ccc3c(-c4cccc(NC(C)=O)c4)cnc(N)c3c2)c1.O=CO
6. FC(F)(F)c1ccc2[nH]c(-c3ccc(-c4ccc(CNCC5CCCO5)cc4)cc3)nc2c1.O=C(O)C(F)(F)F (configuration not stated)

[A]
89
100
100
99
99
100

Give Inhibition for each listed item.
1. Cl.Clc1ccc2c(NCCCCCCCCNc3ccnc4cc(Cl)ccc34)ccnc2c1
2. CCCc1cc2c3c(N)nc(N)nc3ccc2n1C(CC)CC

[A]
99
100

----------
# Test system: Plasmodium falciparum
# assay.summary: GSK_TCMDC: Inhibition of Plasmodium falciparum 3D7 in whole red blood cells, using parasite LDH activity as an index of growth. Test compounds present at 2uM
# Format: functional
Assign Inhibition to each entry below.
One number for each entry, in %.

>>> quantitative_readout("Cc1[nH]c2ccccc2c1C(=O)C(C)Sc1nnc(-c2ccccc2Br)[nH]1 (configuration not stated)")
100
>>> quantitative_readout("Cc1cccc(OCC(=O)Nc2cccc(NC(=O)COc3cccc(C)c3)n2)c1")
98
>>> quantitative_readout("CNC(=O)NC1=NC(C)(C)N(OCc2ccc(Cl)c(Cl)c2)C(NC(=O)NC)=N1")
99
>>> quantitative_readout("CCCCc1ccc(Cc2cnc3nc(N)nc(N)c3c2C)cc1")
96
>>> quantitative_readout("CCn1c(=O)c(C(=O)Nc2cc(Cl)c(OC)cc2OC)nc2ccccc21")
86

// each compound listed below needs its Inhibition
1. CC(C)COc1ccc(Cl)cc1Cc1ccc(-c2nc3cnc4ccccc4c3[nH]2)o1
2. CCOc1cc(C(=O)Nc2cccnc2)ccc1-c1nc2cc(Cl)c(Cl)cc2[nH]1
3. Cc1ccc2nc(C)n(C3CCN(C(=O)Cc4ccccc4C)CC3)c2c1
4. Cc1cccc2nc(-c3ccc(-c4cccc(CN5CCN(c6ccc(C#N)cn6)CC5)c4)s3)[nH]c12.O=C(O)C(F)(F)F
5. O=C(NCC1CCC(C(=O)NC2CCCc3ccccc32)CC1)c1ccc(O)c(-c2ccc(Cl)c(Cl)c2)c1 (configuration not stated)
6. O=C(CCc1nc2c(cnn2-c2ccccc2)c(=O)[nH]1)NC1CCSc2ccccc21 (configuration not stated)

[A]
[87, 100, 100, 85, 93, 95]

----------
# Test system: Plasmodium falciparum
# assay.summary: GSK_TCMDC: Inhibition of Plasmodium falciparum 3D7 in whole red blood cells, using parasite LDH activity as an index of growth. Test compounds present at 2uM
# Assay type: functional
measured.attribute: Inhibition (%)
Answers are plain numbers, in %.

// solved cases for Inhibition follow
>>> quantitative_readout("CN(C)C(C)(C)CN(Cc1ccc(-c2ccc(C(F)(F)F)cc2)cc1)C(=O)Cn1c(CCc2cccc(F)c2F)nc(=O)c2ccccc21.O=C(O)C(O)C(O)C(=O)O")
95
>>> quantitative_readout("Cl.N=C(N)NCCCN(Cc1ccccc1)c1ccccc1")
100
>>> quantitative_readout("CCN(CC)CCCC(C)Nc1cc(C)nc2cc(Cl)ccc12 (stereo unspecified)")
100
>>> quantitative_readout("CN(C)CCNc1ncnc2c1[nH]c1ccc(Br)cc12")
100
>>> quantitative_readout("CCCc1cc(Cc2cnc(N)nc2N)cc(CCC)c1OCCCC(=O)OCC")
94

Provide Inhibition values for the following items, in order.
1. Cc1cc2c(NC(=O)NC3CCN(CCc4ccccc4Cl)CC3)cccc2cn1.Cl
2. CC(C)n1nc(C(=O)N2CCN(c3ccccc3)CC2)c2ccccc2c1=O
3. COc1cc2[nH]c(-c3ccc(O)cc3)c(C)c(=O)c2c(OC)c1OC
4. COc1ccc(NC(=O)CCNc2cc(C)nc(NCCc3ccccc3)n2)cc1.O=C(O)C(F)(F)F
5. CSc1ccc(NC(=O)Nc2cc(C)nc3ccccc23)cc1
6. Cc1cccc2nc(-c3ccc(-c4cccc(NC(=O)Nc5ccccc5)c4)cc3)[nH]c12

[A]
1: 100; 2: 96; 3: 100; 4: 85; 5: 100; 6: 100

Can you give me Inhibition for all of these, one by one?
1. O=C(C=Cc1ccc(Cl)c(Cl)c1)NC1CCN(CCc2ccccc2)CC1.O=C(O)C(F)(F)F
2. CN(C)CCN(C)Cc1nc(-c2ccc3c(Nc4ccc(Oc5ccccc5)cc4)ccnc3c2)cs1

[A]
[97, 100]

Would you mind giving Inhibition for every molecule in the list below?
1. Cc1cc2nc(-c3ccc(/C=C/C(=O)NCCCc4ccccc4)cc3)[nH]c2cc1C
2. O=C(Nc1ccc(-c2cccc(-c3nc4cc(F)ccc4[nH]3)c2)cc1)Nc1ccc(F)c(F)c1F
3. CS(=O)(=O)c1ccc(Nc2ncc(-c3ccc(S(C)(=O)=O)cc3)c(OCC(F)(F)F)n2)cc1
4. CN1CC=C(c2csc3ccc(NC(=O)Nc4ccc(-c5ccncc5)c5ccccc45)cc23)CC1
5. O=C(/C=C/c1ccc(Cl)c(Cl)c1)NCCCCCN1CCC(NC(=O)Nc2ccc(C(F)(F)F)cc2)C1 (stereo unspecified)
6. Cc1ccc(NC(=O)c2cc(Br)cc(N3CCCN(C)CC3)c2)cc1F.O=C(O)C(F)(F)F
7. CN(C)CCN(Cc1ccccc1-c1ccc(CNCCc2ccccc2)cc1)C(=O)NC1CCCCC1.O=C(O)C(F)(F)F
8. Cc1cccc(C(=O)NC(NC(=S)Nc2cc(Cl)ccc2Cl)C(Cl)(Cl)Cl)c1 (stereo unspecified)

[A]
[96, 100, 97, 93, 100, 87, 88, 94]

----------
# Test system: HepG2
# assay.summary: GSK_TCMDC: Percent inhibition of human HepG2 cell line. Test compounds present at 10uM.
# Type: functional
Assignment: determine reported Inhibition for the given compounds.

>>> result("O=C(/C=C/c1ccc(Cl)c(Cl)c1)NCCCCCN1CCC(NC(=O)Nc2ccccc2Cl)CC1")
"56%"

Lab note: each compound below needs its Inhibition filled in.
1. COc1ccc(NC(=O)/C=C/c2ccc(-c3ccc(-c4noc(C)n4)cc3)cc2)cc1OCCN(C)C.O=C(O)C(=O)O
2. CNC(=O)c1cnc(Nc2ccc(OCC(O)CN(C)C)cc2)nc1Nc1cccc(Br)c1.O=C(O)C(F)(F)F (stereo not drawn)
3. CN1CCCN(Cc2ccc(-c3cccc(NC(=O)c4cccc(Cl)c4)c3)cc2)CC1.O=C(O)C(F)(F)F

[A]
14%
68%
33%

# per-item lookup of Inhibition; items listed below
1. O=C(O)C(F)(F)F.OC1CCCN(Cc2cccc(-c3ccc(-c4nc5ccccc5[nH]4)cc3)c2)C1 (stereo not drawn)
2. O=C(NC1CCN(Cc2ccc(F)cc2)CC1)c1ccc(-c2cccc(C(F)(F)F)c2)s1.O=C(O)C(F)(F)F
3. Cl.Nc1c2c(nc3ccc(NC(=O)CCCc4ccccc4)cc13)CCCC2
4. COC(=O)c1cccc(CNCc2ccc(-c3ccc(-c4nc5cc(C(F)(F)F)ccc5[nH]4)s3)cc2)c1.O=C(O)C(F)(F)F

[A]
1: 25%; 2: 88%; 3: 73%; 4: 34%
